- System tested: GABARAP, O95166
- Sequence (O95166 whole entry, the tested form may be a part): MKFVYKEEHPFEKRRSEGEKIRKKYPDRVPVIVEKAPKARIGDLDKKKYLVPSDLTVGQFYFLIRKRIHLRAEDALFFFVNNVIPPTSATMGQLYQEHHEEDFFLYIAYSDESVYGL
- Method: median log2 fold change of GCK-ALFA target abundance (FLAG IP / Myc IP barcode read proportion) (log2 ratio); each designed protein is fused to an ALFA-tag nanobody in HEK293 cells to bring the named protein to FLAG-tagged glucokinase (GCK); Myc marks an untargeted standard; higher = target protein stabilised (more abundant)
- Settings: target protein: 3xFLAG-MCP-GCK-ALFA reporter; HEK293 landing pad (RPLP)
In all, about 4,500 sequences were measured (“median log2 fold change of GCK-ALFA target abundance (FLAG IP / Myc IP barcode read proportion)”: median about 0.078, lowest 2% from about -0.6 on). The full list was thinned out, with the lowest values kept by preference.

Binder	median log2 fold change
GBRAP_166_4966 (protein) MEEEIKEEFKKYLEELKEKMKKANEEEKLELLAEAAEKLREAKEAGVSRETLRELIRYLIELAKEVGLTDSQVYGALSILADLDEEEIDILEEEIAEVRA	-0.12
GBRAP_83_6937 (protein) KEKITVVANDDNIEKSFEIAEDLHKEEGYEVDIDVIITKESIEKLLKEVEKLFKKGVNADLHISLLGVTEEEAEELKKKLEEMAKKYGVNANITVEAIEL	0.224
GBRAP_128_3300 (protein) MDPALRAEVEALVETIRTGDPAARRAAAEALAALMGSVNDEDAEAIADIIEAAIPELSAEALEILADVLDAARPQLTPEKAALAADVASAALLAAEELAE	-0.00271
GBRAP_43_5752 (protein) MEEIIEGAVDFATLAAEDPNISEEQKLKIAKDVFEIVADEGIKLPEELSKLTRALAKSLSLEQLKELLKHLKELAEKYPELKEDFEANAKIIEEAIKKKE	0.108

From: the supplement of paper PMC12632987
